As an illustration, consider measured MIC for compounds on Bacillus subtilis ATCC 6633.
Give bare numbers, in µg/mL.

Previously resolved entries follow.
[
  {
    "COMPOUND": "C[C@H]1O[C@H](O[C@H]2[C@H](O)[C@@H](O)[C@@H](O)[C@H](O)[C@@H]2O)[C@@H](N)C[C@@H]1NC(=N)NCCCCN [Compound 4]",
    "RESULT NUMBER": 0.78
  },
  {
    "COMPOUND": "C[C@H]1O[C@H](O[C@H]2[C@H](O)[C@@H](O)[C@@H](O)[C@H](O)[C@@H]2O)[C@@H](N)C[C@@H]1NC(=N)NCCS(=O)(=O)O [Compound 8]",
    "RESULT NUMBER": 100
  },
  {
    "COMPOUND": "CNCCN(C)C(=N)N[C@H]1C[C@H](N)[C@@H](O[C@H]2[C@H](O)[C@@H](O)[C@@H](O)[C@H](O)[C@@H]2O)O[C@@H]1C [Compound 3]",
    "RESULT NUMBER": 25
  }
]

Query MIC for C[C@H]1O[C@H](O[C@H]2[C@H](O)[C@@H](O)[C@@H](O)[C@H](O)[C@@H]2O)[C@@H](N)C[C@@H]1NC(=N)NCCN [kasugamycin-KG-8]
0.39

* * *

- System: Salmonella paratyphi A
- PROCEDURE DETAILS: antibacterial spectrum by the broth dilution method (MIC)
- Format: cell-based
- CONDITION PARAMETERS: Salmonella enterica, read-out: Minimum inhibitory concentration
Kindly state MIC for each of the entries shown.
For clarity, give the value followed by its unit.

Previously resolved entries follow.
[
  {
    "SMILES NOTATION": "C[C@H]1O[C@H](O[C@H]2[C@H](O)[C@@H](O)[C@@H](O)[C@H](O)[C@@H]2O)[C@@H](N)C[C@@H]1NC(=N)C(=O)O",
    "MIC": "50 µg/mL"
  },
  {
    "SMILES NOTATION": "C[C@H]1O[C@H](O[C@H]2[C@H](O)[C@@H](O)[C@@H](O)[C@H](O)[C@@H]2O)[C@@H](N)C[C@@H]1NC(=N)NCCCCN",
    "MIC": "0.78 µg/mL"
  },
  {
    "SMILES NOTATION": "C[C@H]1O[C@H](O[C@H]2[C@H](O)[C@@H](O)[C@@H](O)[C@H](O)[C@@H]2O)[C@@H](N)C[C@@H]1NC(=N)NCCS(=O)(=O)O",
    "MIC": "50 µg/mL"
  },
  {
    "SMILES NOTATION": "C[C@H]1O[C@H](O[C@H]2[C@H](O)[C@@H](O)[C@@H](O)[C@H](O)[C@@H]2O)[C@@H](N)C[C@@H]1NC(=N)NCCN",
    "MIC": "0.2 µg/mL"
  }
]

Query MIC for `CNCCN(C)C(=N)N[C@H]1C[C@H](N)[C@@H](O[C@H]2[C@H](O)[C@@H](O)[C@@H](O)[C@H](O)[C@@H]2O)O[C@@H]1C`
50 µg/mL

* * *

As an illustration, consider measured MIC for compounds on Staphylococcus aureus 6538P.

[
  {
    "SMILES NOTATION": "C[C@H]1O[C@H](O[C@H]2[C@H](O)[C@@H](O)[C@@H](O)[C@H](O)[C@@H]2O)[C@@H](N)C[C@@H]1NC(=N)NCCCCN",
    "TEST TARGET": "Staphylococcus aureus 6538P",
    "RESULT": "0.2 µg/mL"
  },
  {
    "SMILES NOTATION": "CNCCN(C)C(=N)N[C@H]1C[C@H](N)[C@@H](O[C@H]2[C@H](O)[C@@H](O)[C@@H](O)[C@H](O)[C@@H]2O)O[C@@H]1C",
    "TEST TARGET": "Staphylococcus aureus 6538P",
    "RESULT": "50 µg/mL"
  },
  {
    "SMILES NOTATION": "C[C@H]1O[C@H](O[C@H]2[C@H](O)[C@@H](O)[C@@H](O)[C@H](O)[C@@H]2O)[C@@H](N)C[C@@H]1NC(=N)NCCS(=O)(=O)O",
    "TEST TARGET": "Staphylococcus aureus 6538P",
    "RESULT": "12.5 µg/mL"
  }
]

Batch lookup, MIC per entry.
1. C[C@H]1O[C@H](O[C@H]2[C@H](O)[C@@H](O)[C@@H](O)[C@H](O)[C@@H]2O)[C@@H](N)C[C@@H]1NC(=N)NCCN
2. C[C@H]1O[C@H](O[C@H]2[C@H](O)[C@@H](O)[C@@H](O)[C@H](O)[C@@H]2O)[C@@H](N)C[C@@H]1NC(=N)C(=O)O

1: 0.78 µg/mL; 2: 50 µg/mL
